tested on: PPARg DBDmut IVT, anti-PPARg (DBD mutation: PPARg1 K132A/R137A, NR concentration 270 nM); assay: PBM binding z-score (relative to random genomic background probes); higher = stronger binding; sequences stand for … in GC…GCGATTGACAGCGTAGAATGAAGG
Everything with PBM binding z-score lower than -0.6 is not fulfilled; everything else, including exactly -0.6, is fulfilled.

Please review the entries below; each comes with its answer.
[
  {
    "sequence-input": "CCTCGGAGGACAGAAGGTCAGAACTGTCCGCTTT",
    "answer-label": "not fulfilled"
  },
  {
    "sequence-input": "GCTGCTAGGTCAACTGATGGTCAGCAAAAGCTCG",
    "answer-label": "fulfilled"
  },
  {
    "sequence-input": "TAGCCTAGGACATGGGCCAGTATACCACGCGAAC",
    "answer-label": "not fulfilled"
  },
  {
    "sequence-input": "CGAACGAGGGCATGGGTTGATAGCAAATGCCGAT",
    "answer-label": "fulfilled"
  },
  {
    "sequence-input": "TGTTGTAGATCAAGCAGGTTAAGAAAGCCTGAGT",
    "answer-label": "not fulfilled"
  },
  {
    "sequence-input": "TCTAGCAGGCCAGAGGGTCATTCAAGAGGTACGG",
    "answer-label": "not fulfilled"
  },
  {
    "sequence-input": "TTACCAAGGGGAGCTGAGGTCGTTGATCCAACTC",
    "answer-label": "not fulfilled"
  },
  {
    "sequence-input": "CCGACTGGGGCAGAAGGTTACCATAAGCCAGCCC",
    "answer-label": "not fulfilled"
  }
]

Exercise: Hello, I need to know if "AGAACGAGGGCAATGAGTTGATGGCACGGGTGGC" has measured PBM binding z-score not below -0.6. Thanks!
Solution: fulfilled

---

system: RARb:RXRa (NR concentration 270 nM, RXRa partner concentration 90 nM); test: PBM binding z-score (relative to random genomic background probes); higher = stronger binding; sequences stand for … in GC…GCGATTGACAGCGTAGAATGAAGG
measured-property: PBM binding z-score
Give bare numbers.

See these solved cases before continuing.
[
  {
    "sequence-input": "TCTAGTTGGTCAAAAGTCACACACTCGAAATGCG",
    "tested-target": "RARb:RXRa (NR concentration 270 nM, RXRa partner concentration 90 nM)",
    "PBM binding z-score": 1.35
  },
  {
    "sequence-input": "TGAATGAGGTTATAAGATCAGGCAACGTTGCAAA",
    "tested-target": "RARb:RXRa (NR concentration 270 nM, RXRa partner concentration 90 nM)",
    "PBM binding z-score": 1.24
  },
  {
    "sequence-input": "ACAGTCAGGTGATGAAGGTAACTCAGGCTATCAT",
    "tested-target": "RARb:RXRa (NR concentration 270 nM, RXRa partner concentration 90 nM)",
    "PBM binding z-score": 0.503
  }
]

Would you kindly look at the next entry?
Exercise: If you can, please state the reported PBM binding z-score value of "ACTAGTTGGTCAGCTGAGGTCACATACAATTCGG" .
Solution: 3.4

---

system: PPARg DBDmut IVT, anti-PPARg (DBD mutation: PPARg1 K132A/R137A, NR concentration 270 nM); experiment: PBM binding z-score (relative to random genomic background probes); higher = stronger binding; sequences stand for … in GC…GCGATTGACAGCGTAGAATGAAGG
measured-property: PBM binding z-score
Numbers only.

See these solved cases before continuing.
[
  {
    "sequence-input": "ACTCACGGGTCAACGAGGTTATAGCACGCGTATA",
    "PBM binding z-score": 1.16
  },
  {
    "sequence-input": "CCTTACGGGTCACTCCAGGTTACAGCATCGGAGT",
    "PBM binding z-score": -0.572
  }
]

Hi! Can you tell me PBM binding z-score for each of these sequences?
1. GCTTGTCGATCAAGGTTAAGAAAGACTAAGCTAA
2. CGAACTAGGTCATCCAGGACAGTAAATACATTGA
3. GCTGGTAGGTCAGGTTGGTCAGCTAACGGGTACG
4. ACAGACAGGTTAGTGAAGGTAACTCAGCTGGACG
5. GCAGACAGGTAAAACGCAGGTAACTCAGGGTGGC

Solution:
1. 0.0381
2. 3.62
3. 0.163
4. 0.465
5. -0.839

Hi! Can you tell me PBM binding z-score for each of these sequences?
1. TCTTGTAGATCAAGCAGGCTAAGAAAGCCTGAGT
2. GCTCGGATGACAAGGTCAGAGCTTTGTCCGTAGA
3. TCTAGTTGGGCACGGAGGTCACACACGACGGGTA

Solution:
1. 1.11
2. -1.25
3. -0.0176

Hi! Can you tell me PBM binding z-score for each of these sequences?
1. CCAGACAGGTGAAAGGTAACTAAGTCTGGTACGC
2. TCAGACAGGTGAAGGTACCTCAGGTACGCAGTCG

Solution:
1: -0.253; 2: -0.186
